MEASURED TARGET: Glucagon-like peptide 1 receptor (Rattus norvegicus)
ASSAY REMARKS: Inhibition of [125I]GLP1 (7-36) amide binding to rat GLP1R expressed in HEK293 cells
Could you please mark Met for values of IC50 below 2 µM and Not met for values at or above it?

COMPOUND: COc1cc([C@H]2[C@](NC(=O)c3ccc(NC(=O)OC(C)(C)C)cc3)(C(=O)O)[C@H](c3ccc(OC(=O)c4cccs4)c(OC)c3)[C@]2(NC(=O)c2ccc(NC(=O)OC(C)(C)C)cc2)C(=O)O)ccc1OC(=O)c1cccs1
CLASS NAME: Met
--
COMPOUND: COc1cc([C@H]2[C@](NC(=O)c3ccc(NC(=O)CCl)cc3)(C(=O)O)[C@@H](c3ccc(OC(=O)c4cccs4)c(OC)c3)[C@]2(NC(=O)c2ccc(NC(=O)CCl)cc2)C(=O)O)ccc1OC(=O)c1cccs1
CLASS NAME: Not met
--
COMPOUND: CCC(=O)Nc1ccc(C(=O)N[C@]2(C(=O)O)[C@H](c3ccc(OC(=O)c4cccs4)c(OC)c3)[C@@](NC(=O)c3ccc(NC(=O)CC)cc3)(C(=O)O)[C@@H]2c2ccc(OC(=O)c3cccs3)c(OC)c2)cc1
CLASS NAME: Not met
--
COMPOUND: COc1cc([C@H]2[C@](NC(=O)c3ccc(NC(=O)Cc4ccccc4)cc3)(C(=O)O)[C@@H](c3ccc(OC(=O)c4cccs4)c(OC)c3)[C@]2(NC(=O)c2ccc(NC(=O)Cc3ccccc3)cc2)C(=O)O)ccc1OC(=O)c1cccs1
CLASS NAME: Not met
--
COMPOUND: COc1cc([C@H]2[C@](NC(=O)c3ccc(NC(=O)C(C)C)cc3)(C(=O)O)[C@@H](c3ccc(OC(=O)c4cccs4)c(OC)c3)[C@]2(NC(=O)c2ccc(NC(=O)C(C)C)cc2)C(=O)O)ccc1OC(=O)c1cccs1
CLASS NAME: Met

Does this compound meet the criterion IC50 < 2 µM? COc1cc([C@H]2[C@](NC(=O)c3ccc(NC(=O)OC(C)(C)C)cc3)(C(=O)O)[C@@H](c3ccc(OC(=O)c4cccs4)c(OC)c3)[C@@]2(NC(=O)c2ccc(NC(=O)OC(C)(C)C)cc2)C(=O)O)ccc1OC(=O)c1cccs1
Not met

Does this compound meet the criterion IC50 < 2 µM? COc1cc([C@H]2[C@](NC(=O)c3ccc(NC(=O)C(C)C)cc3)(C(=O)O)[C@@H](c3ccc(OC(=O)C4CCC4)c(OC)c3)[C@]2(NC(=O)c2ccc(NC(=O)C(C)C)cc2)C(=O)O)ccc1OC(=O)C1CCC1
Not met

---

MEASURED TARGET: Glucagon-like peptide 1 receptor (Rattus norvegicus)
ASSAY REMARKS: Inhibition of [125I]Exendin (9-39) binding to rat GLP1R expressed in HEK293 cells
Assay type: cell-based
Set-up: concentration or dose not given beside the values
TEST CONTEXT: concentration not given here
MEASURE NAME: inhibition (%)
Output spec: scalar in %, unitless text.

SMILES REPRESENTATION: COc1cc([C@H]2[C@](NC(=O)c3ccc(NC(C)=O)cc3)(C(=O)O)[C@@H](c3ccc(OC(=O)c4cccs4)c(OC)c3)[C@]2(NC(=O)c2ccc(NC(C)=O)cc2)C(=O)O)ccc1OC(=O)c1cccs1
inhibition / %: 30.6

Below: the item to evaluate.
Consider the compound CCC(=O)Nc1ccc(C(=O)N[C@]2(C(=O)O)[C@H](c3ccc(OC(=O)c4cccs4)c(OC)c3)[C@@](NC(=O)c3ccc(NC(=O)CC)cc3)(C(=O)O)[C@@H]2c2ccc(OC(=O)c3cccs3)c(OC)c2)cc1 and give its measured inhibition.
36.1

---

MEASURED TARGET: Glucagon-like peptide 1 receptor (Rattus norvegicus)
ASSAY REMARKS: Agonist activity at rat GLP1R expressed in HEK293 cells assessed as stimulation of cAMP levels incubated for 6 hrs by multiple response element/cAMP response element (MRE/CRE)-driven reporter gene assay
EC50 values for the compounds below.
Output spec: scalar in µM, unitless text.

Sample records with EC50:
COMPOUND: COc1cc([C@H]2[C@](NC(=O)c3ccc(NC(=O)OC(C)(C)C)cc3)(C(=O)O)[C@@H](c3ccc(OC(=O)C(C)C)c(OC)c3)[C@]2(NC(=O)c2ccc(NC(=O)OC(C)(C)C)cc2)C(=O)O)ccc1OC(=O)C(C)C
EC50 (µM): 1.38
--
COMPOUND: COc1cc([C@H]2[C@](NC(=O)c3ccc(NC(=O)CCl)cc3)(C(=O)O)[C@@H](c3ccc(OC(=O)c4cccs4)c(OC)c3)[C@]2(NC(=O)c2ccc(NC(=O)CCl)cc2)C(=O)O)ccc1OC(=O)c1cccs1
EC50 (µM): 3.8
--
COMPOUND: COc1cc([C@H]2[C@](NC(=O)c3ccc(NC(=S)Nc4cccc5ccccc45)cc3)(C(=O)O)[C@@H](c3ccc(OC(=O)c4cccs4)c(OC)c3)[C@]2(NC(=O)c2ccc(NC(=S)Nc3cccc4ccccc34)cc2)C(=O)O)ccc1OC(=O)c1cccs1
EC50 (µM): 2.12
--
COMPOUND: CCCC(=O)Oc1ccc([C@H]2[C@](NC(=O)c3ccc(NC(=O)OC(C)(C)C)cc3)(C(=O)O)[C@@H](c3ccc(OC(=O)CCC)c(OC)c3)[C@]2(NC(=O)c2ccc(NC(=O)OC(C)(C)C)cc2)C(=O)O)cc1OC
EC50 (µM): 3.33
--
COMPOUND: CCC(=O)Nc1ccc(C(=O)N[C@]2(C(=O)O)[C@H](c3ccc(OC(=O)c4cccs4)c(OC)c3)[C@@](NC(=O)c3ccc(NC(=O)CC)cc3)(C(=O)O)[C@@H]2c2ccc(OC(=O)c3cccs3)c(OC)c2)cc1
EC50 (µM): 0.696
--
COMPOUND: COc1cc([C@H]2[C@](NC(=O)c3ccc(NC(=O)C(C)(C)C)cc3)(C(=O)O)[C@@H](c3ccc(OC(=O)c4cccs4)c(OC)c3)[C@]2(NC(=O)c2ccc(NC(=O)C(C)(C)C)cc2)C(=O)O)ccc1OC(=O)c1cccs1
EC50 (µM): 1.11
--
COMPOUND: CCC(=O)Oc1ccc([C@H]2[C@](NC(=O)c3ccc(NC(=O)OC(C)(C)C)cc3)(C(=O)O)[C@@H](c3ccc(OC(=O)CC)c(OC)c3)[C@]2(NC(=O)c2ccc(NC(=O)OC(C)(C)C)cc2)C(=O)O)cc1OC
EC50 (µM): 2.5
--
COMPOUND: COc1cc([C@H]2[C@](NC(=O)c3ccc(NC(=O)Nc4cccc(F)c4)cc3)(C(=O)O)[C@@H](c3ccc(OC(=O)c4cccs4)c(OC)c3)[C@]2(NC(=O)c2ccc(NC(=O)Nc3cccc(F)c3)cc2)C(=O)O)ccc1OC(=O)c1cccs1
EC50 (µM): 2.71
--
COMPOUND: COc1cc([C@H]2[C@](NC(=O)c3ccc(NC(=O)OC(C)(C)C)cc3)(C(=O)O)[C@@H](c3ccc(OC(C)=O)c(OC)c3)[C@]2(NC(=O)c2ccc(NC(=O)OC(C)(C)C)cc2)C(=O)O)ccc1OC(C)=O
EC50 (µM): 8.31
--
COMPOUND: COc1cc([C@H]2[C@](NC(=O)c3ccc(NC(=O)C(C)C)cc3)(C(=O)O)[C@@H](c3ccc(OC(=O)C4CCC4)c(OC)c3)[C@]2(NC(=O)c2ccc(NC(=O)C(C)C)cc2)C(=O)O)ccc1OC(=O)C1CCC1
EC50 (µM): 15.8

Consider the compound COc1cc([C@H]2[C@](NC(=O)c3ccc(NC(=O)OC(C)(C)C)cc3)(C(=O)O)[C@@H](c3ccc(OC(=O)c4cccs4)c(OC)c3)[C@]2(NC(=O)c2ccc(NC(=O)OC(C)(C)C)cc2)C(=O)O)ccc1OC(=O)c1cccs1 (stereo in doubt; 3) and give its measured EC50.
0.847

Consider the compound COc1ccc([C@H]2[C@](NC(=O)c3ccc(NC(=O)OC(C)(C)C)cc3)(C(=O)O)[C@@H](c3ccc(OC)cc3)[C@]2(NC(=O)c2ccc(NC(=O)OC(C)(C)C)cc2)C(=O)O)cc1 and give its measured EC50.
9.4

---

MEASURED TARGET: Glucagon-like peptide 1 receptor (Rattus norvegicus, UniProt P32301)
Sequence (P32301 whole entry): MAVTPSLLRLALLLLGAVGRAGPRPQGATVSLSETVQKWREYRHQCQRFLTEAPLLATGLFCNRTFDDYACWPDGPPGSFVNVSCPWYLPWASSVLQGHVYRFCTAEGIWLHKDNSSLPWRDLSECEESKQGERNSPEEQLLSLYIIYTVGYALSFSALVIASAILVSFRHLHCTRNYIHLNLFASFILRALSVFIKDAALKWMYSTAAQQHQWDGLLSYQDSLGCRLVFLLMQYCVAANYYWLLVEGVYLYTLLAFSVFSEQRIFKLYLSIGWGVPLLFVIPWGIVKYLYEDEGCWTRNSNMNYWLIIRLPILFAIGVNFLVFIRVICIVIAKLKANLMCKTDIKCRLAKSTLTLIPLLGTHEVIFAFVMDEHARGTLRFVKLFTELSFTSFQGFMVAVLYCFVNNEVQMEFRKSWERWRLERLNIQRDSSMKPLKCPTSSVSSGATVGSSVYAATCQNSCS
ASSAY REMARKS: Inhibition of [125I]GLP1 (7-36) amide binding to rat GLP1R expressed in HEK293 cells
pIC50 values for the compounds below.
Friendly reminder that pIC50 comes from taking -log10 of the concentration in mol/L.

Sample records with pIC50:
COMPOUND: CNC(=S)Nc1ccc(C(=O)N[C@]2(C(=O)O)[C@H](c3ccc(OC(=O)c4cccs4)c(OC)c3)[C@@](NC(=O)c3ccc(NC(=S)NC)cc3)(C(=O)O)[C@@H]2c2ccc(OC(=O)c3cccs3)c(OC)c2)cc1
pIC50: 5.85
--
COMPOUND: COc1cc([C@H]2[C@](NC(=O)c3ccc(NC(=S)Nc4cccc5ccccc45)cc3)(C(=O)O)[C@@H](c3ccc(OC(=O)c4cccs4)c(OC)c3)[C@]2(NC(=O)c2ccc(NC(=S)Nc3cccc4ccccc34)cc2)C(=O)O)ccc1OC(=O)c1cccs1
pIC50: 5.52
--
COMPOUND: COc1cc([C@H]2[C@](NC(=O)c3ccc(NC(=O)OC(C)(C)C)cc3)(C(=O)O)[C@@H](c3ccc(OC(=O)c4cccs4)c(OC)c3)[C@]2(NC(=O)c2ccc(NC(=O)OC(C)(C)C)cc2)C(=O)O)ccc1OC(=O)c1cccs1 (stereo in doubt; 3)
pIC50: 5.80
--
COMPOUND: COc1cc([C@H]2[C@](NC(=O)c3ccc(NC(=O)C4CCCCC4)cc3)(C(=O)O)[C@@H](c3ccc(OC(=O)c4cccs4)c(OC)c3)[C@]2(NC(=O)c2ccc(NC(=O)C3CCCCC3)cc2)C(=O)O)ccc1OC(=O)c1cccs1
pIC50: 6.00
--
COMPOUND: CCC(=O)Oc1ccc([C@H]2[C@](NC(=O)c3ccc(NC(=O)OC(C)(C)C)cc3)(C(=O)O)[C@@H](c3ccc(OC(=O)CC)c(OC)c3)[C@]2(NC(=O)c2ccc(NC(=O)OC(C)(C)C)cc2)C(=O)O)cc1OC
pIC50: 5.57
--
COMPOUND: CCCC(=O)Nc1ccc(C(=O)N[C@]2(C(=O)O)[C@H](c3ccc(OC(=O)c4cccs4)c(OC)c3)[C@@](NC(=O)c3ccc(NC(=O)CCC)cc3)(C(=O)O)[C@@H]2c2ccc(OC(=O)c3cccs3)c(OC)c2)cc1
pIC50: 5.47

Consider the compound COc1cc([C@H]2[C@](NC(=O)c3ccc(NC(=O)OC(C)(C)C)cc3)(C(=O)O)[C@@H](c3ccc(OC(=O)c4cccs4)c(OC)c3)[C@]2(NC(=O)c2ccc(NC(=O)OC(C)(C)C)cc2)C(=O)O)ccc1OC(=O)c1cccs1 (stereo in doubt) and give its measured pIC50.
6.22

Consider the compound COc1cc([C@H]2[C@](NC(=O)c3ccc(NC(=O)CO)cc3)(C(=O)O)[C@@H](c3ccc(OC(=O)c4cccs4)c(OC)c3)[C@]2(NC(=O)c2ccc(NC(=O)CO)cc2)C(=O)O)ccc1OC(=O)c1cccs1 and give its measured pIC50.
5.09

Consider the compound COc1cc([C@H]2[C@](NC(=O)c3ccc(NC(=O)C(C)(C)C)cc3)(C(=O)O)[C@@H](c3ccc(OC(=O)c4cccs4)c(OC)c3)[C@]2(NC(=O)c2ccc(NC(=O)C(C)(C)C)cc2)C(=O)O)ccc1OC(=O)c1cccs1 and give its measured pIC50.
6.30

Consider the compound COc1cc([C@H]2[C@](NC(=O)c3ccc(NC(=O)C4CCCC4)cc3)(C(=O)O)[C@@H](c3ccc(OC(=O)c4cccs4)c(OC)c3)[C@@]2(NC(=O)c2ccc(NC(=O)C3CCCC3)cc2)C(=O)O)ccc1OC(=O)c1cccs1 and give its measured pIC50.
6.52

Consider the compound COc1cc([C@H]2[C@](NC(=O)c3ccc(NC(=O)OC(C)(C)C)cc3)(C(=O)O)[C@@H](c3ccc(OC(=O)c4ccc(C)s4)c(OC)c3)[C@]2(NC(=O)c2ccc(NC(=O)OC(C)(C)C)cc2)C(=O)O)ccc1OC(=O)c1ccc(C)s1 and give its measured pIC50.
4.76

Consider the compound COc1cc([C@H]2[C@](NC(=O)c3ccc(NC(=O)C45CC6CC(CC(C6)C4)C5)cc3)(C(=O)O)[C@@H](c3ccc(OC(=O)c4cccs4)c(OC)c3)[C@]2(NC(=O)c2ccc(NC(=O)C34CC5CC(CC(C5)C3)C4)cc2)C(=O)O)ccc1OC(=O)c1cccs1 and give its measured pIC50.
5.10
